experiment.description: Plasma pharmacokinetics of lorlatinib at steady state (LC-MS/MS, non-compartmental analysis)
Type: in vivo, human
experimental.conditions: human, plasma, oral, 60 mg/m2, Cycle 1 Day 15; Cohort A1; 60 mg/m2 per dose; individual patients; read-out: AUC_TAU
Text: Lorlatinib was isolated from human plasma by a liquid-iquid extraction procedure. […] A linear-log trapezoidal method was used [NT] A best-fit method was used to estimate terminal elimination and to extrapolate any plasma concentration versus time profiles to compute [NT].
reported.property: AUC (ng·h/mL)

molecule	measured
C[C@H]1Oc2cc(cnc2N)-c2c(nn(C)c2C#N)CN(C)C(=O)c2ccc(F)cc21 [Lorlatinib]	4140

###

experiment.description: Plasma pharmacokinetics of lorlatinib at steady state (LC-MS/MS, non-compartmental analysis)
Format: in vivo, human
experimental.conditions: human, plasma, oral, 150 mg, Cycle 1 Day 1; Cohort A2; 150 mg per dose; individual patients; read-out: AUCall

smi	AUC, ng·h/mL
C[C@H]1Oc2cc(cnc2N)-c2c(nn(C)c2C#N)CN(C)C(=O)c2ccc(F)cc21	5920

###

experiment.description: Plasma pharmacokinetics of lorlatinib at steady state (LC-MS/MS, non-compartmental analysis)
Format: in vivo, human
experimental.conditions: Cycle 1 Day 15; Cohort A1; 60 mg/m2 per dose; individual patients

smi	Tlast
C[C@H]1Oc2cc(cnc2N)-c2c(nn(C)c2C#N)CN(C)C(=O)c2ccc(F)cc21	24 h

###

experiment.description: Plasma pharmacokinetics of lorlatinib at steady state (LC-MS/MS, non-compartmental analysis)
Assay type: in vivo, human
experimental.conditions: human, in vivo, 115 mg/m2, Cycle 1 Day 15; patient N0773; Cohort B2; 115 mg/m2 per dose; Dose 75; read-out: AUC_TAU
reported.property: AUC

smi	reported.property	measured
C[C@H]1Oc2cc(cnc2N)-c2c(nn(C)c2C#N)CN(C)C(=O)c2ccc(F)cc21	AUC	6950 ng·h/mL

###

experiment.description: Plasma pharmacokinetics of lorlatinib at steady state (LC-MS/MS, non-compartmental analysis)
Assay type: in vivo, human
experimental.conditions: human, plasma, oral, 95 mg/m2, Cycle 1 Day 1; Cohort A1; 95 mg/m2 per dose; individual patients; read-out: Tmax

smi	reading.unit	Tmax
C[C@H]1Oc2cc(cnc2N)-c2c(nn(C)c2C#N)CN(C)C(=O)c2ccc(F)cc21	h	2
